test system: Rattus norvegicus; assay: Tested for gastric antisecretory activity in the pyloric ligated rat by observing the pH of gastric contents at dose 100 mg/kg orally 1 hr prior to the 5-h pyloric ligation period; format: ADME, organism-based, Stomach; set-up: dose 100 mg/kg, route oral; settings: in vivo, po
parameter: pH

Example entries and their recorded answers appear below.
> print(dat)
                                   compound       systemtested  parameter  recordedmeasurement
1  Cc1c2c(c(C=O)n1-c1ccccc1)C(C)(C(N)=O)CC2(C)C (centres undefined)  Rattus norvegicus         pH                  1.2
2  Cc1c2c(c(C)n1-c1ccccc1)C(C)(C(N)=O)CC2(C)C (centres undefined)  Rattus norvegicus         pH                  6.2
3  CC1(C)CC(C)(C(N)=O)c2c1c(C=O)n(-c1ccccc1)c2C=O (centres undefined)  Rattus norvegicus         pH                  1.2
4  Cc1c2c(c(CO)n1-c1ccccc1)C(C)(C)CC2(C)C(N)=O (centres undefined)  Rattus norvegicus         pH                  5.7
5  Cc1c2c(c(CO)n1-c1ccccc1)C(C)(C(N)=O)CC2(C)C (centres undefined)  Rattus norvegicus         pH                    7

a. CC1(C)CC(C)(C(N)=O)c2cn(-c3ccccc3)c(CO)c21 (centres undefined)
b. Cc1c2c(c(C=O)n1-c1ccccc1)C(C)(C)CC2(C)C(N)=O (centres undefined)
c. Cc1c2c(cn1-c1ccccc1)C(C)(C(N)=O)CC2(C)C (centres undefined)
Highest pH first, then in falling order down to the smallest. Could you list the labels in the order requested?
a, c, b
(a: 6.4, c: 2.6, b: 1.5)
